Below are IC50 values recorded for Cytochrome P450 3A4 (Homo sapiens, UniProt P08684).

Some entries whose results are on file:
[
  {
    "chemical-smiles": "Cc1cc(C(=O)N[C@H]2CC[C@@H](NC(=O)c3cc(F)cnc3Oc3cccc(-c4ccc(CCN5CCC(N6CCCC6)CC5)cc4)c3)CC2)nn1C",
    "IC50": "> 1000 nM"
  },
  {
    "chemical-smiles": "Cc1cccc2nc(C(=O)N[C@H]3CC[C@@H](NC(=O)c4cc(F)cnc4Oc4cccc(-c5ccc(CN6C[C@@H](C)N[C@@H](C)C6)cc5)c4)CC3)cn12",
    "IC50": "> 1000 nM"
  }
]

Here's the next entry for you.
Find IC50 (Cytochrome P450 3A4 (Homo sapiens, UniProt P08684)) for the entry Cc1cc(C(=O)N[C@H]2CC[C@@H](NC(=O)c3cc(F)cnc3Oc3cccc(-c4ccc(O)cc4CN4CCOCC4)c3)CC2)nn1C 501 nM

###

test-protocol: Apparent volume of distribution in dog
Assay type: ADME, organism-based, Canis lupus familiaris
run-parameters: in vivo, read-out: Vz/F
quantity-kind: Vd/F (L/kg)
Express it in L/kg; write the number only.

[
  {
    "chemical-smiles": "Cc1ccc(O)c(C(=O)N[C@H]2CC[C@@H](NC(=O)c3cc(F)cnc3Oc3cccc(-c4ccc(CN5C[C@@H](C)N[C@@H](C)C5)cc4CN4CCOCC4)c3)CC2)c1",
    "output-unit": "L/kg",
    "Vd/F": 25
  }
]

Look up Vd/F: Cc1csc(C(=O)N[C@H]2CC[C@@H](NC(=O)c3cc(F)cnc3Oc3cccc(-c4ccc(CN5C[C@@H](C)N[C@@H](C)C5)cc4CN4CCOCC4)c3)CC2)n1 44

###

Tested on: Rattus norvegicus
test-protocol: Apparent volume of distribution in rat at 1 mg/kg, iv
Type: ADME, organism-based
Parameters: dose 1 mg/kg, route intravenous
run-parameters: in vivo
Listed compounds paired with reported Vz/F

Some compounds with known Vz/F results, for comparison:
[
  {
    "chemical-smiles": "Cc1cc(C(=O)N[C@H]2CC[C@@H](NC(=O)c3cc(F)cnc3Oc3cccc(-c4ccc(CCCN5C[C@@H](C)N[C@@H](C)C5)cc4)c3)CC2)nn1C",
    "study-target": "Rattus norvegicus",
    "Vz/F": "41 L/kg"
  },
  {
    "chemical-smiles": "Cc1csc(C(=O)N[C@H]2CC[C@@H](NC(=O)c3cc(F)cnc3Oc3cccc(-c4ccc(CN5C[C@@H](C)N[C@@H](C)C5)cc4CN4CCOCC4)c3)CC2)n1",
    "study-target": "Rattus norvegicus",
    "Vz/F": "27 L/kg"
  },
  {
    "chemical-smiles": "Cc1cc(C(=O)N[C@H]2CC[C@@H](NC(=O)c3cc(F)cnc3Oc3cccc(-c4ccc(CCN5CCC(N6CCCC6)CC5)cc4)c3)CC2)nn1C",
    "study-target": "Rattus norvegicus",
    "Vz/F": "59 L/kg"
  },
  {
    "chemical-smiles": "Cc1cc(C(=O)N[C@H]2CC[C@@H](NC(=O)c3cc(F)cnc3Oc3cccc(-c4ccc(O)cc4CN4CCOCC4)c3)CC2)nn1C",
    "study-target": "Rattus norvegicus",
    "Vz/F": "76 L/kg"
  }
]

Given the compound Cc1cccc2nc(C(=O)N[C@H]3CC[C@@H](NC(=O)c4cc(F)cnc4Oc4cccc(-c5ccc(CN6CCC(N7CCCC7)CC6)cc5)c4)CC3)cn12 , what is its reported Vz/F? 80 L/kg
